The values you see were collected from PubChem BioAssay.

assay: small-molecule microarray binders of probe aCHRDL2, primary screen, biochemical, biotinylated probe, 635/667 nm fluorescence (AID 1100); details: higher = more signal
testReadout: composite z-score

1. O=c1cccc(-c2ccco2)o1 ... -0.617
2. COC(=O)[C@@]1(Cc2ccccc2)[C@H]2c3cc(C(=O)N(C)C)n(CCn4cc([N+](=O)[O-])nc4C)c3C[C@H]2CN1C(=O)c1ccccc1 ... 0.436
3. O=C1C2C=CC(C(O)C=Cc3ccc([N+](=O)[O-])cc3)N(Nc3ccccc3)C2C(=O)N1c1ccccc1 (stereo unspecified) ... 0.689
4. COC(=O)[C@@]1(Cc2ccc(F)cc2)[C@H]2c3cc(C(=O)N(C)C)n(Cc4ccc(O)c(OC)c4)c3C[C@H]2CN1C(=O)c1ccccc1 ... 0.128
5. O=C1O[C@H](c2ccccc2)[C@H](c2ccccc2)N2[C@H]1[C@@H](C(=O)Nc1nc3ccccc3s1)[C@]1(C(=O)Nc3ccc(C#CC4=CCCCC4)cc31)[C@H]2c1ccc(O)cc1 ... 0.115
6. CN(C)C(=O)[C@@]1(CCC(=O)OC(C)(C)C)N=C(c2ccc(OCCCO)cc2)O[C@H]1c1ccccc1CN=[N+]=[N-] ... 0.724
7. COc1cc(NN2C(C(O)C3CCCCC3)C=CC3C(=O)N(c4ccccc4)C(=O)C32)cc(OC)c1OC (stereo unspecified) ... 1.43
8. Cc1ccc(N2C(=O)c3ccccc3[C@](C)(C(=O)NCc3ccccc3)[C@@H]2c2ccc(CO)cc2)nc1 ... 0.615
9. Cc1ccc(S[C@]2(C(=O)NCC(C)C)CC(=O)N(C3Cc4ccccc4C3)[C@@H]2c2ccc(CO)cc2I)cc1 ... -0.0156
10. CCCCC=C[C@@H](NC(=O)c1ccccc1)c1ccccc1 ... 0.732
11. CC(C)C[C@@H]1NC(=O)[C@@H]2C[C@H](C(=O)NCCCCCC[N+](C)(C)C)[C@H](c3cccc(OCCO)c3)N2C1=O ... 0.512
12. O=C(NCC(O)CO)[C@@]1(CCS(=O)(=O)c2ccccc2)COC(c2ccc(OCCCO)cc2)=N1 (stereo partly specified) ... 1.16
13. Cc1ccc(F)cc1S(=O)(=O)N[C@@H]1CCN(Cc2cccc3[nH]ccc23)C1 ... -0.518
14. C=C(COC)C(=O)CC[C@@H](OC(=O)c1cccnc1)c1ccccc1OCCO ... 0.647
15. O=C1N(CCS(=O)(=O)c2ccccc2)Cc2ccccc2[C@@H]2OC(c3ccc(OCCCO)cc3)=N[C@]12CCS(=O)(=O)c1ccccc1 ... 0.788
16. COc1ccc(C#Cc2ccc3c(c2)[C@]2(C(=O)N3)[C@H](c3ccc(OCCO)cc3)N3[C@H](c4ccccc4)[C@H](c4ccccc4)OC(=O)[C@H]3[C@@H]2C(=O)N2CCc3cc(OC)c(OC)cc3C2)cc1 ... 0.185
